- procedure text: Ocular tissue drug concentration after topical dosing of rabbit eyes (HPLC)
- Type: in vivo
- measurement conditions: New Zealand albino, cornea, 30 microliters, normal eyes, after 30 minutes, read-out: drug levels in cornea

{"structure": "O=C(O)c1cn(C2CC2)c2cc(N3CCNCC3)c(F)cc2c1=O", "scale unit": "ng/g", "concentration at 30 min": 10600}
